system: anti-desmoglein-3 scFv antibody binding to human DSG3; assay: inhibitors of anti-DSG3 scFv binding to DSG3, pilot screen, biochemical, validation compound set, bead-based, flow cytometry (AID 588368); conditions: Protein G beads, DSG3-Fc, scFv-GFP binding, at 10 µM, active compounds read low;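 also: signal is the median channel fluorescence of bead-bound GFP antibody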
READOUT_KIND: binding (% of control) (%)
Hi! Could you send only the number? It should be in %, unit omitted.

binding (% of control) measured on NCCc1ccc(O)cc1 = 107

binding (% of control) measured on Cc1ccc(/C=C2/C(=O)NC(=O)N(C)C2=O)cc1 = 97.8

binding (% of control) measured on CC(C)[N+](C)(CCC(C(N)=O)(c1ccccc1)c1ccccc1)C(C)C = 101

binding (% of control) measured on O=C1C=Cc2ccccc2C1=O = 109

binding (% of control) measured on O=C1CN=C(c2ccccc2F)c2cc(Cl)ccc2N1 = 94.8

binding (% of control) measured on O=c1c2ccccc2[se]n1-c1ccccc1 = 9.72

binding (% of control) measured on Cc1c2ccncc2c(C)c2c1[nH]c1ccccc12 = 180

binding (% of control) measured on CN1[C@@H]2CC[C@H]1CC(OC(=O)C1C=Nc3ccccc31)C2 (some centres not stated) = 93.3

binding (% of control) measured on COc1ccc2c3c([nH]c2c1)C(C)=NCC3 = 172

binding (% of control) measured on Nc1ccncc1 = 108

binding (% of control) measured on C[C@]12CC[C@@H]3c4ccc(O)c(O)c4CC[C@H]3[C@@H]1CC[C@@H]2O = 108

binding (% of control) measured on CCOC(=O)C(C)Oc1cc(C)cc2oc(=O)c3c(c12)CCCC3 (configuration not stated) = 97.6

binding (% of control) measured on C[C@@H]1O[C@@H](O[C@H]2C[C@@H](O)[C@]3(CO)[C@H]4[C@H](O)C[C@]5(C)[C@@H](C6COC(=O)C6)CC[C@]5(O)[C@@H]4CC[C@]3(O)C2)[C@H](O)[C@H](O)[C@H]1O (some centres not stated) = 104

binding (% of control) measured on Cn1c(O)c(C=NCCc2c[nH]c3ccccc23)c(=O)n(C)c1=O = 96.8

binding (% of control) measured on CC/C(=C\C=C\[C@@H]1C=C[C@@H]2CCC[C@H]2[C@@H]1C(=O)c1ccc[nH]1)[C@@H]1O[C@@H]([C@@H](C)C(=O)O)CC[C@@H]1C = 107

binding (% of control) measured on COP(=S)(OC)SCN1C(=O)c2ccccc2C1=O = 96.4

binding (% of control) measured on C[C@]12CCC(=O)C=C1CC[C@@H]1[C@@H]2CC[C@]2(C)C(=O)CC[C@@H]12 = 99.8

binding (% of control) measured on C[C@H]1CCC/C=C/C2C[C@H](O)CC2[C@H](O)/C=C/C(=O)O1 (some centres not stated) = 85.8

binding (% of control) measured on O=C(CCCN1CCC2(CC1)C(=O)NCN2c1ccccc1)c1ccc(F)cc1 = 103

binding (% of control) measured on CC(Cc1ccccc1)NCC(=O)Nc1cc(N(C)C)nc2ccccc12 (configuration not stated) = 99.3

binding (% of control) measured on CC(C)C(=O)Nc1ccc(S(=O)(=O)N2CC3CC(C2)c2cccc(=O)n2C3)cc1 (configuration not stated) = 100

binding (% of control) measured on COc1ccc2c(c1)CC1(CN2C)C(=O)NC(=O)N(CCc2ccccc2)C1=O (configuration not stated) = 104
